Biological target: SARS-CoV-2 E protein PBM (Severe acute respiratory syndrome coronavirus 2)
Test: ITC

# binder, Kd
data = [
    ("PALS1 255-336, Q8N3R9 (protein) KIVRIEKARDIPLGATVRNEMDSVIISRIVKGGAAEKSGLLHEGDEVLEINGIEIRGKDVNEVFDLLSDMHGTLTFVLIPSQ", "22.8 µM"),
]
